# experiment: Loose specific volume of crystals (50 mL measuring cylinder, two-stage funnel)
# Type: physicochemical
# conditionSummary: crystal powder
Residues, ends and D or L forms follow the SMILES beside them.
Below, each of the molecules is paired with its reported Loose specific volume value.

- molecule: "C[C@H](N)C(=O)N[C@@H](CCC(N)=O)C(=O)O [Example 12, L-alanyl-L-glutamine nonhydrate] (H-Ala-Gln-OH)"
  Loose specific volume [mL/g]: 3.07
- molecule: "C[C@H](N)C(=O)N[C@@H](CCC(N)=O)C(=O)O [Example 5, L-alanyl-L-glutamine nonhydrate] (H-Ala-Gln-OH)"
  Loose specific volume [mL/g]: 2.60
- molecule: "CCO.C[C@H](N)C(=O)N[C@@H](CCC(N)=O)C(=O)O [Example 1, L-alanyl-L-glutamine n-ethanolate] (H-Ala-Gln-OH)"
  Loose specific volume [mL/g]: 2.55
- molecule: "CCO.C[C@H](N)C(=O)N[C@@H](CCC(N)=O)C(=O)O [Example 4 (25° C. vacuum drying), L-alanyl-L-glutamine n-ethanolate] (H-Ala-Gln-OH)"
  Loose specific volume [mL/g]: 3.23
- molecule: "CCO.C[C@H](N)C(=O)N[C@@H](CCC(N)=O)C(=O)O [Example 2 (95° C. vacuum drying), L-alanyl-L-glutamine n-ethanolate] (H-Ala-Gln-OH)"
  Loose specific volume [mL/g]: 2.47
- molecule: "C[C@H](N)C(=O)N[C@@H](CCC(N)=O)C(=O)O.O.O [Example 7, L-alanyl-L-glutamine dihydrate] (H-Ala-Gln-OH)"
  Loose specific volume [mL/g]: 3.27
- molecule: "C[C@H](N)C(=O)N[C@@H](CCC(N)=O)C(=O)O [Patent No. 4931801 (nonhydrate), L-alanyl-L-glutamine nonhydrate, reference compound] (H-Ala-Gln-OH)"
  Loose specific volume [mL/g]: 5.27
